B1: Azoarcus group I ribozyme (parent)
chain: GUGCCUUGCGCCGGGAAACCACGCAAGGGAUGGUGUCAAAUUCGGCGAAACCUAAGCGCCCGCCCGGGCGUAUGGCAACGCCGAGCCAAGCUUCGGCGCCUGCGCCGAUGAAGGUGUAGAGACUAGACGGCACCCACCUAAGGCAAACGCUAUGGUGAAGGCAUAGUCCAGGGAGUGGCGAAAGUCACACAAACCGG

- Variants of: B1
- Assay: reverse-splicing fitness (ratio to wild type); higher = more active; in vitro selection; Mg2+ level not given
Classify by reverse-splicing fitness. Ranges: bin A: < 0.007; bin B: ≥ 0.007 and < 0.02; bin C: ≥ 0.02

// query In plain terms, what class is A145C U176C ?
// result bin C

// query In plain terms, what class is C82A A120G C150U C169G U176A ?
// result bin B

// query In plain terms, what class is A120G A145G C150U C169G U176C ?
// result bin C

// query In plain terms, what class is C82A A111U A120G C150A C169G U176C ?
// result bin C

// query In plain terms, what class is C82U A120G C169U ?
// result bin B

// query In plain terms, what class is C82A A120G A145G C150U C169U U176G ?
// result bin A

// query In plain terms, what class is C82U A111G A145G C150G C169G U176G ?
// result bin A

// query In plain terms, what class is C82A A111C A120G A145G C150U C169U U176C ?
// result bin B

// query In plain terms, what class is C82A A111U C150U C169U U176C ?
// result bin B

// query In plain terms, what class is C82G A120U C169G ?
// result bin A

// query In plain terms, what class is C82U C150A C169U U176C ?
// result bin B

// query In plain terms, what class is C82U A111U A120U A145G ?
// result bin C

// query In plain terms, what class is C82U A111C A120C A145C C150A C169G U176C ?
// result bin B

// query In plain terms, what class is A120C C150U C169A U176G ?
// result bin A

// query In plain terms, what class is C82U A111C A120C A145U C150U C169A U176G ?
// result bin A

// query In plain terms, what class is C82A A111C A120C A145G C150G C169U U176C ?
// result bin B

// query In plain terms, what class is C82U A111U A145C C150U C169U U176G ?
// result bin A

// query In plain terms, what class is C82G A120C A145U C150A C169G U176C ?
// result bin B

// query In plain terms, what class is C82A A111G A120G A145G C150U C169U U176C ?
// result bin B

// query In plain terms, what class is C82G A111U A120C A145C C150G U176C ?
// result bin B

// query In plain terms, what class is C82U A120U A145G C150A C169A ?
// result bin A

// query In plain terms, what class is A111U A120C A145G C169G U176C ?
// result bin C

// query In plain terms, what class is A111G A120C A145C C150U C169G U176A ?
// result bin B

// query In plain terms, what class is C82A A111U A120C C150A C169U U176C ?
// result bin B

// query In plain terms, what class is C82A A111U A120U A145G C150U C169U U176G ?
// result bin A
